This collection of values is drawn from PubChem BioAssay.

Tested on: Inhibin beta A chain (activin A)
assay notes: small molecules binding activin A – biochemical, small-molecule microarray, 635 nm fluorescence scan, primary screen (AID 1107);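 note: mouse activin A protein probed at 4.33 µg/mL on printed slides; score merges bound-protein fluorescence near 667 nm with spot signal-to-noise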
conditions used: INHBA, higher = more signal
recorded endpoint: composite z-score
Enter the number alone.

Some solved entries appear below for comparison.
molecule | recorded value
COCCOC(=O)N1C(=O)[C@@]2(c3cc(C#CC4(O)CCCCCC4)ccc31)[C@H](c1ccc(O)cc1)N1[C@H](c3ccccc3)[C@H](c3ccccc3)OC(=O)[C@H]1[C@@H]2C(=O)N1CCc2cc(OC)c(OC)cc2C1 | 0.0107
CCCC[C@H]1OB(O)C[C@H]2C1=C(C)Cn1c(=O)n(-c3ccccc3)c(=O)n12 | 0.255
Cc1ccc(C(C)CC(O)C2C=CC3C(=O)NC(=O)C3N2Nc2ccccn2)o1 (stereo not given) | 1.25

# input Supply reported composite z-score belonging to this molecule: CCCC[C@@H]1C[C@H]1[C@@H](NC(=O)c1ccccc1)c1ccc(-c2ccccc2)cc1
# output 0.715

# input Provide one value: measured composite z-score of CO[C@H]1O[C@H](CO)[C@@H](OC(=O)Nc2ccccc2-c2ccccc2)[C@H](OC(=O)Nc2ccccc2-c2ccccc2)[C@H]1OC(=O)Nc1ccccc1-c1ccccc1
# output 0.628

# input Please report composite z-score for the following molecule: CC(C)C(CO)N1C(=O)[C@@H]2[C@H]3C(=O)OCC=C[C@H]3OC23C=CCN(c2ccc4ccccc4c2)C(=O)[C@@H]13 (stereo not given in full)
# output -0.141

# input Consider the molecule COc1ccc([Si](C)(C)[C@@H]2[C@@H](CCO)O[C@]3(C(=O)N(Cc4cccc(N5CCCCC5=O)c4)c4ccccc43)[C@H]2C)cc1 . State its measured composite z-score.
# output 0.764

# input Hello, please tell me recorded composite z-score for this one: CCCCN1CC=CC23O[C@@H]4C=CCCOC(=O)C4[C@H]2C(=O)N(CCCO)[C@@H]3C1=O (stereo not given in full)
# output 0.824

# input Using known records, supply composite z-score for CCCNC(=O)[C@@]1(C)c2ccccc2C(=O)N(C(C)C)[C@H]1c1ccc(CO)cc1
# output -0.105

# input Note down composite z-score recorded for [N-]=[N+]=Nc1ccccc1[C@@H]1OC(c2ccc(OCCCO)cc2)=N[C@]1(CCS(=O)(=O)c1ccccc1)C(=O)N1CCCCC1
# output 1.36

# input Please give measured composite z-score of the following entry: COc1ccccc1CN1C(=O)c2ccccc2[C@](Cc2ccccc2I)(C(=O)NCc2ccccc2)[C@@H]1c1ccc(CO)cc1
# output 0.9

# input State, in one line, measured composite z-score of [N-]=[N+]=Nc1ccccc1[C@@H]1OC(c2ccc(OCCCO)cc2)=N[C@]1(CCS(=O)(=O)c1ccccc1)C(=O)O
# output 1.31

# input Hello, please tell me recorded composite z-score for this one: O=C(NCC(O)CO)[C@]1(CCS(=O)(=O)c2ccccc2)N=C(c2ccc(OCCCO)cc2)O[C@@H]1c1ccccc1 (stereo not given in full)
# output 0.529

###

assay notes: probe aNOTCH3 binding on compound microarray – biochemical, small-molecule microarray, 635/667 nm fluorescence, primary screen (AID 1120);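 note: probe is a biotin-tagged antibody raised against NOTCH3 rather than NOTCH3 protein; score merges spot fluorescence near 667 nm with spot signal to noise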
conditions used: higher = more signal
Measured composite z-score values are reported for all entries that follow.
Respond using a number only.

Some molecules with known composite z-score results, for comparison:
molecule | composite z-score
C=CCN1C(=O)[C@]2(Cc3ccccc31)N=C(c1ccc(OCCCO)cc1)O[C@@H]2c1ccccc1 | 0.0562
[N-]=[N+]=Nc1ccccc1[C@@H]1OC(c2ccc(OCCCO)cc2)=N[C@]1(CCS(=O)(=O)c1ccccc1)C(=O)O | 0.416
CN1C(=O)C2C=CC(C(O)C=Cc3ccc([N+](=O)[O-])cc3)N(N3CCCCC3)C2C1=O (configuration not stated) | 1.03
O=C1C[C@@](C(=O)O)(c2ccc([N+](=O)[O-])cc2)[C@@H](c2ccc(CO)cc2I)N1CC12CC3CC(CC(C3)C1)C2 | -0.132

# input For the molecule C=CCN1Cc2ccccc2C[C@@]2(COC(c3ccc(OCCCO)cc3)=N2)C1=O , report composite z-score.
# output 0.0596

# input Name the recorded composite z-score of the item O=C(N1CCCCC1)[C@]1(CCS(=O)(=O)c2ccccc2)N=C(c2ccc(OCCCO)cc2)O[C@@H]1c1ccccc1 in your answer.
# output 0.381

# input Note down composite z-score recorded for COc1ccc([Si](C)(C)[C@H]2[C@H](CC(=O)N3CCC[C@H]3CO)O[C@@]3(C(=O)N(Cc4cccc(N5CCC5=O)c4)c4ccccc43)[C@@H]2C)cc1
# output 0.229

# input State its composite z-score: COC(=O)[C@@]1(Cc2ccc(OC)cc2)[C@H]2c3cc(C(=O)N4CCCC4)n(CCc4ccccn4)c3C[C@H]2CN1C(=O)c1ccccc1
# output 0.268

# input Answer with the recorded composite z-score for the molecule listed here: CCOC(=O)C[C@H]1[C@H](OC(=O)c2cc3ccccc3oc2=O)[C@@H](NC(=O)c2ccc3ccccc3c2)c2cc(OCCCO)ccc2N1C(=O)c1ccccc1
# output 0.0745

# input Given the molecule C=CCN1C(=O)[C@]2(COC(c3ccc(OCCCO)cc3)=N2)Cc2ccccc21 , write its reported composite z-score.
# output -0.0362
